- test system: Gal(b1-4)GlcNAc(b1-3)Gal(b1-4)GlcNAc(b1-2)[Gal(b1-4)GlcNAc(b1-3)Gal(b1-4)GlcNAc(b1-6)]Man(a1-6)[Gal(b1-4)GlcNAc(b1-3)Gal(b1-4)GlcNAc(b1-2)Man(a1-3)]Man(b1-4)GlcNAc(b1-4)[Fuc(a1-6)]GlcNAc
- assay comment: glycan array binding signal (z-score within array); higher = stronger binding
- experimental context: glycan notation: IUPAC condensed, linker removed
About 410 targets per protein were measured; listed, in parts, are those with the strongest signals and a random draw of the rest.
assay metric: glycan array binding signal (z-score)
Answers are plain numbers.

INSERT INTO measurements (binder, observed) VALUES
  ('LlpA1 (Pseudomonas fluorescens), Q4KHC3 (protein) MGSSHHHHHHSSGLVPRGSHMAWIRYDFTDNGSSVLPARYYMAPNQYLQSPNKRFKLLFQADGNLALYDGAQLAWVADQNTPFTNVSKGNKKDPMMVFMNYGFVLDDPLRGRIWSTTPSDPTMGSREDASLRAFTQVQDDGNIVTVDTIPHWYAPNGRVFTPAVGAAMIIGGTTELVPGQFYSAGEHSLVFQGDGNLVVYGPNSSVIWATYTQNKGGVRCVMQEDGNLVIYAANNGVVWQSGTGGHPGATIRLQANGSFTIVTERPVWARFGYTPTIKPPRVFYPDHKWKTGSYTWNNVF', 1.19),
  ('EUL D1A second (Oryza sativa) (protein) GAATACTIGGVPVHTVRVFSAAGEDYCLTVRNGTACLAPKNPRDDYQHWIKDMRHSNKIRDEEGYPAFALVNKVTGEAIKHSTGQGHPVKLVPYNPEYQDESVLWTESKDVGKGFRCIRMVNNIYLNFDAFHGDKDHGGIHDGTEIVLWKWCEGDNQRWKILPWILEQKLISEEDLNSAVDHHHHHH', 3.31);

Kindly consider the entry below.
## Input Give a short answer stating reported glycan array binding signal (z-score) for MpAFP NterminalRI GFP (Marinomonas primoryensis) (protein) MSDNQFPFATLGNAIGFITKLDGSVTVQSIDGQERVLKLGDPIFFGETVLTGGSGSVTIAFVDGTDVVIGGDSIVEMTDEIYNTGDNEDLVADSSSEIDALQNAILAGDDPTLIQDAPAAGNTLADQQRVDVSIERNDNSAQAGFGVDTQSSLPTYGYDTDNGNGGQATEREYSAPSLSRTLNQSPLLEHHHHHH .
## Output 4.16

Data origin: the supplement of paper PMC8728848
